# studySystem: human NTS2 (Homo sapiens, UniProt O95665)
# Sequence (O95665 whole entry): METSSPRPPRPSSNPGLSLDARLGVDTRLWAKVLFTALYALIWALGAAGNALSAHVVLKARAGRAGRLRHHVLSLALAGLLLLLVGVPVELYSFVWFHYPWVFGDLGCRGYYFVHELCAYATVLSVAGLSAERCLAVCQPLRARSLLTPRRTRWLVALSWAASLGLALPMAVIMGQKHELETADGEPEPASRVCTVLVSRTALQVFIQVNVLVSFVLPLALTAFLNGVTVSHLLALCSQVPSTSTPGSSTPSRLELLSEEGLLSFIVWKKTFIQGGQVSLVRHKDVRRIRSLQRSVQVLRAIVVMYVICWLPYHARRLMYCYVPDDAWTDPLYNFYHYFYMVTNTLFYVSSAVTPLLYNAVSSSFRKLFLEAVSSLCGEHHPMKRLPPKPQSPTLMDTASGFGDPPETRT
readoutKind: Ki (nM)
# number only, unit nM dropped from output

What measured Ki is associated with CC[C@H](C)[C@H](NC(=O)CN(CCc1ccn2nccc2c1)C(=O)[C@@H]1CCCN1C(=O)[C@H](CCCNC(=N)N)NC(=O)[C@@H](N)CCCNC(=N)N)C(=O)N[C@@H](CC(C)C)C(=O)O on human NTS2 (Homo sapiens, UniProt O95665)? 520

Values were extracted from paper PMC4234217.
